target: PI3K (p110γ) (Homo sapiens, UniProt P48736); experiment: PI3Kγ assay (ADP-Glo Kinase Assay); format: biochemical; details: recombinant enzyme; IC50 (nM) or max inhibition (%) at 0.5 μM
Sequence (P48736 whole entry): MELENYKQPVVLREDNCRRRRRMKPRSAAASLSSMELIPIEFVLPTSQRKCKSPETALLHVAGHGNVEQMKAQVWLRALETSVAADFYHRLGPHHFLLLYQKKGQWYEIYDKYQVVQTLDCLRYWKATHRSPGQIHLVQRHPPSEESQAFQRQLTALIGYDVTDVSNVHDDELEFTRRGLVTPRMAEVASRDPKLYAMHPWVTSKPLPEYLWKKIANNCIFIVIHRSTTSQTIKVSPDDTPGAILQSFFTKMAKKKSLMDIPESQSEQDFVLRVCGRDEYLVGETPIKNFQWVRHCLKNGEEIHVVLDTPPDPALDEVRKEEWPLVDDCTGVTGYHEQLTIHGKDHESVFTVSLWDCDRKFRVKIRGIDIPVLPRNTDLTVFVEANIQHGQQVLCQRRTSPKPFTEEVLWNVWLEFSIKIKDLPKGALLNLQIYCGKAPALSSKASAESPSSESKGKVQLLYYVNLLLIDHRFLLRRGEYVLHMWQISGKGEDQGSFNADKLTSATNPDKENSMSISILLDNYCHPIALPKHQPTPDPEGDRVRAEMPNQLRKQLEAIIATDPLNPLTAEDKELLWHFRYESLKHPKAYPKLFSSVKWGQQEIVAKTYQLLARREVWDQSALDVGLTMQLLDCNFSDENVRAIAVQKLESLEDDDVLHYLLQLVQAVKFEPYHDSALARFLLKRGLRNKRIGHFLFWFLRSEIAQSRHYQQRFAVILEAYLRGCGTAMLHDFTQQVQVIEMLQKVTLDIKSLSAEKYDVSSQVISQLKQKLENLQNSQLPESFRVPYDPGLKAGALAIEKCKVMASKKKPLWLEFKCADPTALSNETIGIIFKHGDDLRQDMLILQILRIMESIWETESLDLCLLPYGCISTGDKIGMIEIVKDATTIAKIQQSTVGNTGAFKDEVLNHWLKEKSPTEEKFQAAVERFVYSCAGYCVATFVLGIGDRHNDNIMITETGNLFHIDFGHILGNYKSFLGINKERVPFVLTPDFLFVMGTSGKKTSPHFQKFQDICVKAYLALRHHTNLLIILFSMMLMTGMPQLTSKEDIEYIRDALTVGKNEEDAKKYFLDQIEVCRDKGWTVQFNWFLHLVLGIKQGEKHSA
RESULT_TYPE: IC50

Before answering, review these 4 worked examples.
COMPOUND	IC50
Cc1nc([C@@H](C)c2cc(Cl)c(F)c(C(=O)NCC3(O)COC3)c2OC(C)C)n2ccnc(N)c12	2200 nM
Cc1nc(C(C)c2cc(Cl)c(F)c(C(=O)NCC3(O)CC3)c2OC(C)C)n2ccnc(N)c12 (centres unmarked)	9000 nM
Cc1nc([C@@H](C)c2cc(Cl)c(F)c(C(=O)NCC3CCCOC3)c2OC(C)C)n2ccnc(N)c12 (some centres unmarked)	6100 nM
Cc1nc([C@@H](C)c2cc(Cl)c(F)c(C(=O)NC[C@H](C)O)c2OC(C)C)n2ccnc(N)c12	4900 nM

I am curious: what IC50 value has been reported for "Cc1nc([C@@H](C)c2cc(Cl)c(F)c(C(=O)N3CC4CCC(C3)O4)c2OC(C)C)n2ccnc(N)c12" ?
2500 nM

Given the compound "Cc1nc([C@@H](C)c2cc(Cl)c(F)c(C(=O)NCC3CCOCC3)c2OC(C)C)n2ccnc(N)c12" , what is its reported IC50?
4500 nM

Requested field: IC50. Item: COCCNC(=O)c1c(F)c(Cl)cc(C(C)c2nc(C)c3c(N)nccn23)c1OC(C)C (centres unmarked)
6800 nM

What does the record list as IC50 for Cc1nc([C@@H](C)c2cc(Cl)c(F)c(C(=O)N[C@@H](C)c3ccnc(C(F)(F)F)c3)c2OC(C)C)n2ccnc(N)c12 [Compound 59A] ?
1200 nM

----------
biological target: PI3K (p110α/p85α) (Homo sapiens, UniProt P42336); experiment: PI3Kα assay (ADP-Glo Kinase Assay); format: biochemical; details: recombinant enzyme; IC50 (nM) or max inhibition (%) at 0.5 μM
Sequence (P42336 whole entry): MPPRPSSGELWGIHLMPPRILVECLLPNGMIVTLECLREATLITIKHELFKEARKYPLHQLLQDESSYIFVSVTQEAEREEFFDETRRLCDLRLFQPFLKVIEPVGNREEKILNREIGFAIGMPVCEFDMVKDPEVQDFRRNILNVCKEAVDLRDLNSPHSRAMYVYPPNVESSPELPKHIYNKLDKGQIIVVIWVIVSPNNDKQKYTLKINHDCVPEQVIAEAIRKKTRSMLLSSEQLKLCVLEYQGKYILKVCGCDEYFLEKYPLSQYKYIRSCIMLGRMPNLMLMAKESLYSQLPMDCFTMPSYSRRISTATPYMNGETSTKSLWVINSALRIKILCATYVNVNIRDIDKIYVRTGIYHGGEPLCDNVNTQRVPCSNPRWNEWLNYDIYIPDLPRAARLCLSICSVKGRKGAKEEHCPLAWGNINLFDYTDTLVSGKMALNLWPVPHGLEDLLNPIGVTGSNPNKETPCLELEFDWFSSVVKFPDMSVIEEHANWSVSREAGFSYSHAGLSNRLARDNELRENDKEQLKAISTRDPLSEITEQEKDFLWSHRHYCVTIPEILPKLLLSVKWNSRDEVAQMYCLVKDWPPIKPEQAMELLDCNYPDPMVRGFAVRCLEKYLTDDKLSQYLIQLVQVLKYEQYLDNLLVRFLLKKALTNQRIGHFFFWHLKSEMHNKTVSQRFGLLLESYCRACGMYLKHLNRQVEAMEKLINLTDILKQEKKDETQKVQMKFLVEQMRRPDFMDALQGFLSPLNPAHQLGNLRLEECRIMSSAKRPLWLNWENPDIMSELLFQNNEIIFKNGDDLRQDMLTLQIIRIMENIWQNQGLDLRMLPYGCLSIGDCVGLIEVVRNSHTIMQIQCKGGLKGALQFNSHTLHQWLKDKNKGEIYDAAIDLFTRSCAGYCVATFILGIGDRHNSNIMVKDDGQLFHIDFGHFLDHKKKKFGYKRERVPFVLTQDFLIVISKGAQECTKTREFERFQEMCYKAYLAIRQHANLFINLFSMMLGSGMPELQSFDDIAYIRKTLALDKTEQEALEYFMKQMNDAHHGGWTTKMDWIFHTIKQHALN
Sequence (P27986 whole entry partner): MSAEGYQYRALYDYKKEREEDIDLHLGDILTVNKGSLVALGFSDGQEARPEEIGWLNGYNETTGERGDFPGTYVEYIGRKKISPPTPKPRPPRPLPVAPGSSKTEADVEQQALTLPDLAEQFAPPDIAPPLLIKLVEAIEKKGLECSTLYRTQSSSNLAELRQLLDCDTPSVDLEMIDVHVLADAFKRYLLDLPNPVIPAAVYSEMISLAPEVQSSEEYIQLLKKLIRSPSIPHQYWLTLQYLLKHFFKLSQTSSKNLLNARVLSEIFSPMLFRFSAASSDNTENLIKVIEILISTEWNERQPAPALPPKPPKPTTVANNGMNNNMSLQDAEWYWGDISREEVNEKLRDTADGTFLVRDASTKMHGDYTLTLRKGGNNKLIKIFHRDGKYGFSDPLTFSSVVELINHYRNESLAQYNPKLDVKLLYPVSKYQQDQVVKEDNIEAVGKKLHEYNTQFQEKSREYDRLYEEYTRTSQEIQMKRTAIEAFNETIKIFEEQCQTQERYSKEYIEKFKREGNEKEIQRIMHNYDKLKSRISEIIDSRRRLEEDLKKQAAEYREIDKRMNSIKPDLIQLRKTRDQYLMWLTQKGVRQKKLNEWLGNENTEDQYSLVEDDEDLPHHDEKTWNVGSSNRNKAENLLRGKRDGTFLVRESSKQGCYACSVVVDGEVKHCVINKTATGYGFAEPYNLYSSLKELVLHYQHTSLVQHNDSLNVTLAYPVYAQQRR
RESULT_TYPE: IC50 (nM)
Write the value in nM as a bare number.

Some solved cases for reference:
MOLECULE	UNITS_SYMBOL	IC50
Cc1nc(C(C)c2cc(Cl)c(F)c(C(=O)N3CCOCC3)c2OC(C)C)n2ccnc(N)c12 (stereo not shown) [Compound 4]	nM	25000
Cc1nc([C@@H](C)c2cc(Cl)c(F)c(C(=O)N[C@H]3CCCOC3)c2OC(C)C)n2ccnc(N)c12 [Compound 45]	nM	16000
Cc1nc([C@@H](C)c2cc(Cl)c(F)c(C(=O)NC3(CN4CCN(CC5CC5)CC4)CC3)c2OC(C)C)n2ccnc(N)c12 [Compound 56]	nM	28000

Next, consider the following molecule.
Can you share its IC50? I mean this molecule: Cc1nc([C@@H](C)c2cc(Cl)c(F)c(C(=O)NCC3CCN(C)CC3)c2OC(C)C)n2ccnc(N)c12 [Compound 30]
17000

----------
experiment: Pharmacokinetic properties in Sprague-Dawley rats after intravenous (IV) and oral (PO) administration; format: in vivo; conditions: male, Sprague-Dawley, plasma, 10 mg/kg; rat, PO 10 mpk
RESULT_TYPE: AUC(0-inf) (ng·h/mL)
Kindly provide the numeric value in ng·h/mL only, without the unit symbol.

What value of AUC(0-inf) has been reported for the following compound? "Cc1nc([C@@H](C)c2cc(Cl)c(F)c(C(=O)NCCN3CCN(C)CC3)c2OC(C)C)n2ccnc(N)c12"
918

----------
biological target: PI3K (p110α/p85α) (Homo sapiens); assay: PI3Kα assay (ADP-Glo Kinase Assay); format: biochemical; settings: recombinant enzyme; IC50 (nM) or max inhibition (%) at 0.5 μM
Each record here notes measured IC50.
Quick reminder: number only, in nM, skip the unit.

Answered examples (2):
COMPOUND	IC50, nM
COC[C@@H]1CCCN1C(=O)c1c(F)c(Cl)cc([C@H](C)c2nc(C)c3c(N)nccn23)c1OC(C)C	77000
Cc1nc([C@@H](C)c2cc(Cl)c(F)c(C(=O)N[C@]3(C)C[C@H](O)C3)c2OC(C)C)n2ccnc(N)c12	6100

Any idea what IC50 was measured for "Cc1nc([C@@H](C)c2cc(Cl)c(F)c(C(=O)N[C@H]3CCCC[C@@H]3O)c2OC(C)C)n2ccnc(N)c12" ?
9700

// lookup IC50 for Cc1nc(C(C)c2cc(Cl)c(F)c(C(=O)N3CCC(F)(F)CC3)c2OC(C)C)n2ccnc(N)c12 (single isomer, unassigned) [Compound 13A]
20000

Look up IC50: "CCOCC1(NC(=O)c2c(F)c(Cl)cc([C@H](C)c3nc(C)c4c(N)nccn34)c2OC(C)C)CC1"
36000

Form field: reported IC50 of "CCCNC(=O)c1c(F)c(Cl)cc([C@H](C)c2nc(C)c3c(N)nccn23)c1OC(C)C"
20000

// query IC50 value for entry "Cc1nc([C@@H](C)c2cc(Cl)c(F)c(C(=O)N[C@H]3CCC[C@@H]3O)c2OC(C)C)n2ccnc(N)c12"
11000

Give its IC50 value. Item: "Cc1nc([C@@H](C)c2cc(Cl)c(F)c(C(=O)Nc3ccc(F)cc3)c2OC(C)C)n2ccnc(N)c12"
19000

Name the recorded IC50 for "CCNC(=O)c1c(F)c(Cl)cc([C@H](C)c2nc(C)c3c(N)nccn23)c1OC(C)C" .
24000

# input compound: "Cc1nc([C@@H](C)c2cc(Cl)c(F)c(C(=O)N[C@@H](C)c3ccccc3)c2OC(C)C)n2ccnc(N)c12" ; wanted: its IC50
33000

Entry under review: "Cc1nc([C@@H](C)c2cc(Cl)c(F)c(C(=O)N3C[C@H](C)O[C@@H](C)C3)c2OC(C)C)n2ccnc(N)c12" . Reported IC50?
21000

// returns reported IC50 for input "Cc1nc([C@@H](C)c2cc(Cl)c(F)c(C(=O)NC[C@@H]3CCCO3)c2OC(C)C)n2ccnc(N)c12"
36000

Which IC50 is reported for this compound? Cc1nc([C@@H](C)c2cc(Cl)c(F)c(C(=O)NCC3CCCOC3)c2OC(C)C)n2ccnc(N)c12 (stereo partly shown)
15000

Requested field: IC50. Item: "Cc1nc([C@@H](C)c2cc(Cl)c(F)c(C(=O)NCc3ccccn3)c2OC(C)C)n2ccnc(N)c12"
9300

----------
assay: Pharmacokinetic properties in Sprague-Dawley rats after intravenous (IV) and oral (PO) administration; assay type: in vivo; conditions: male, Sprague-Dawley, plasma, 1 mg/kg; rat, IV 1 mpk; read-out: VdSS
# Vd listing for each entry below
Report as a plain number; the unit L/kg is understood.

COMPOUND	RESULT_TYPE	UNITS_SYMBOL	NUMERIC_VALUE
Cc1nc([C@@H](C)c2cc(Cl)c(F)c(C(=O)N[C@H]3CC[C@H](O)CC3)c2OC(C)C)n2ccnc(N)c12 [Compound 60]	Vd	L/kg	3.3

Next up:
Can you look up the measured Vd of Cc1nc([C@@H](C)c2cc(Cl)c(F)c(C(=O)NCCN3CCN(C)CC3)c2OC(C)C)n2ccnc(N)c12 [Compound 73] for me?
59.4

----------
Reported IC50 is given for each of the following compounds.
biological target: PI3K (p110δ/p85α) (Homo sapiens, UniProt O00329); experiment: PI3Kδ assay (ADP-Glo Kinase Assay); assay type: biochemical; settings: recombinant enzyme; IC50 (nM) or max inhibition (%) at 0.5 μM
Sequence (O00329 whole entry): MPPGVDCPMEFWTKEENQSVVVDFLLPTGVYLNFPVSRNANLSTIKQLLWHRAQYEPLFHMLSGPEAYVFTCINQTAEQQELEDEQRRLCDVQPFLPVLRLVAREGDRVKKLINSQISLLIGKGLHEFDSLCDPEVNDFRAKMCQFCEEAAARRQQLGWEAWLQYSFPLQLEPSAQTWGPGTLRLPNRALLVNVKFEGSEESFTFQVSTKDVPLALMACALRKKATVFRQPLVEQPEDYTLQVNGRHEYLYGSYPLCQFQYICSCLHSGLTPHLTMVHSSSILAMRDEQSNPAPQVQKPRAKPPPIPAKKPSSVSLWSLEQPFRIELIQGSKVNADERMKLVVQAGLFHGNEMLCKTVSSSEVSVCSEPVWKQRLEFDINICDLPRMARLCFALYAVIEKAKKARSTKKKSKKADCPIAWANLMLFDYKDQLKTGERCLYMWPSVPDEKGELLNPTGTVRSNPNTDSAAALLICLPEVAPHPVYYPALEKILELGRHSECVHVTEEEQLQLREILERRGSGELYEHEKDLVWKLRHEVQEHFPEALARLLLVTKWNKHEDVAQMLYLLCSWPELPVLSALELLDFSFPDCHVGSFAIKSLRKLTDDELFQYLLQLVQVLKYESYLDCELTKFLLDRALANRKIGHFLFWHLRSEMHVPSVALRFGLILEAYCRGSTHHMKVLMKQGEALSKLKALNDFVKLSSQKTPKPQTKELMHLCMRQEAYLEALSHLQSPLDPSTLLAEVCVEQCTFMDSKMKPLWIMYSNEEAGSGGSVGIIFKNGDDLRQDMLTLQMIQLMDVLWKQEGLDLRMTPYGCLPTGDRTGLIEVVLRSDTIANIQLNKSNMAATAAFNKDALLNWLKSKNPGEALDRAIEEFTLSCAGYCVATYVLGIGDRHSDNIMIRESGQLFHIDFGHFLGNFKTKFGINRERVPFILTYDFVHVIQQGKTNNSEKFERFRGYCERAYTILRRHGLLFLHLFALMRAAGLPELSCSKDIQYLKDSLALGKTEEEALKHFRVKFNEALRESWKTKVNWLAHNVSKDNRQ
Sequence (P27986 whole entry partner): as the sequence (P27986 whole entry partner) above
Reply with just the number (in nM).

Here are 3 compounds together with their reported answers.
COMPOUND	IC50 [nM]
Cc1nc([C@@H](C)c2cc(Cl)c(F)c(C(=O)N[C@H]3C[C@H](O)C3)c2OC(C)C)n2ccnc(N)c12	1.4
Cc1nc([C@@H](C)c2cc(Cl)c(F)c(C(=O)NC[C@@H]3CCCO3)c2OC(C)C)n2ccnc(N)c12	1.6
Cc1nc([C@@H](C)c2cc(Cl)c(F)c(C(=O)N[C@@H]3CCCOC3)c2OC(C)C)n2ccnc(N)c12	0.74

Endpoint output: IC50 of "CO[C@H]1CCCN(C(=O)c2c(F)c(Cl)cc([C@H](C)c3nc(C)c4c(N)nccn34)c2OC(C)C)C1" . Value?
2.9

Dear colleague, I am looking for the recorded IC50 of the following compound: "CO[C@@H]1CCCN(C(=O)c2c(F)c(Cl)cc([C@H](C)c3nc(C)c4c(N)nccn34)c2OC(C)C)C1"
2

----------
experiment: Pharmacokinetic properties in Sprague-Dawley rats after intravenous (IV) and oral (PO) administration; format: in vivo; conditions: male, Sprague-Dawley, plasma, 5 mg/kg; rat, PO 5 mpk
RESULT_TYPE: Tmax (min)
Use min as the unit, but write only the number.

Look up Tmax: Cc1nc([C@@H](C)c2cc(Cl)c(F)c(C(=O)N[C@H]3CC[C@H](O)CC3)c2OC(C)C)n2ccnc(N)c12 [Compound 60]
18
